Let's look at some sequences and their measured phosphorylation enrichment.
Tested on: c-Abl (mouse);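 further: 11-residue human phosphosite peptides and single-mutation variants displayed on the E. coli surface, counted by deep sequencing, each peptide's frequency after selection divided by its frequency in the unselected input library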;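 further: frequency after pTyr selection over input frequency; kinase dosed for 20-30% of maximal phosphorylation in three min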
ASSAY PROTOCOL: phosphorylation enrichment, bacterial display (enrichment ratio); higher = better substrate or ligand; peptides without Tyr show the background
// return a plain number; no unit text

{"INPUT SEQUENCE": "SLIDGYYRLTA [JAK2_Y372]", "RECORDED RESULT": 0.522}
{"INPUT SEQUENCE": "LFMGDYVGRGF [PPP2CA_Y86_D88G_YF]", "RECORDED RESULT": 1.1}
{"INPUT SEQUENCE": "VVGMLYVGGLP [LAMA2_Y2886]", "RECORDED RESULT": 0.742}
{"INPUT SEQUENCE": "WQQQSYLGSGI [CTNNB1_Y30_D32G]", "RECORDED RESULT": 0.521}

Task item: Returns the measured phosphorylation enrichment for the input sequence. Input: WCSNDHLGMSR [ALAS2_Y199_Y199H]
Reply: 0.504

Task item: Returns the measured phosphorylation enrichment for the input sequence. Input: LGGSPYPRVPV [FGFR1_Y701_G703R]
Reply: 0.483

Origin of the recorded values: the supplement of paper PMC10065799
